- Test system: HLA-II complexes (HLA-DR, HLA-DP, HLA-DQ) of HEK293T/ATC cells
- Type: cell-based, human
MEASUREMENT_TYPE: Unique HEK293T peptides in segment
Numbers only.

Known results for sequences:
INSERT INTO measurements (residues, quantitative_readout) VALUES
  ('SPDAVTAYNGYLTSSSK [nsp3: 661-677]', 1),
  ('MAGNGGDAALALLLLDRLNQLESKMSGKGQQQQGQTVT [N: 210-247]', 0),
  ('SDNGPQNQRNAPRITE [N: 2-17]', 0),
  ('DGSEDNQTTTIQTIVE [nsp3: 174-189]', 1),
  ('ATREASVYAWNRKRISN [S:344-360]', 3),
  ('ICASYQTQTNSPRRA [S:670-684]', 1);

We now examine a further sequence.
Short answer for IAQFAPSASAFFG [N: 304-316] : Unique HEK293T peptides in segment was 0

----------
- System: HLA-II complexes (HLA-DR, HLA-DP, HLA-DQ) of HEK293T/ATC cells
- Format: cell-based, human
MEASUREMENT_TYPE: Unique HEK293T peptides in segment

Known results for sequences:
INSERT INTO results (residues, tested_system, result) VALUES
  ('ALHFLLFFRALPKS [ORF3a.iORF1: 28-41]', 'HLA-II complexes (HLA-DR, HLA-DP, HLA-DQ) of HEK293T/ATC cells', 1),
  ('MDPKISEMHPALRLVDPQIQLAVTRMENA [ORF9b: 1-29]', 'HLA-II complexes (HLA-DR, HLA-DP, HLA-DQ) of HEK293T/ATC cells', 8),
  ('VGPKVYPIILRLGSPLS [ORF9b: 37-53]', 'HLA-II complexes (HLA-DR, HLA-DP, HLA-DQ) of HEK293T/ATC cells', 2),
  ('EPQIITTDNTFVSGN [S:1111-1125]', 'HLA-II complexes (HLA-DR, HLA-DP, HLA-DQ) of HEK293T/ATC cells', 0),
  ('TEIYQAGSTPCNGVEG [S:470-485]', 'HLA-II complexes (HLA-DR, HLA-DP, HLA-DQ) of HEK293T/ATC cells', 2);

Would you be so kind as to report Unique HEK293T peptides in segment for each listed record?
1. DSFVIRGDEVRQIAPG [S:398-413]
2. TQLPPAYTNSFTRGVYYPDKVERSSVLHSTQDLFLPFFS [S: 22-60]
3. KKKADETQALPQRQKKQQTVTLLPAADLDDESKQLQQSMSSADSTQA [N: 373-419]
4. SVASQSIIAYTMSLGAEN [S:686-703]
5. YIINLIIKNLSKS [ORF6: 31-43]

[reply]
1: 1; 2: 0; 3: 69; 4: 3; 5: 0

----------
- System: HLA-II complexes (HLA-DR, HLA-DP, HLA-DQ) of HEK293T/ATC cells
- Assay type: cell-based, human
Kindly state Unique HEK293T peptides in segment for each of the entries shown.
One number for each entry.

INSERT INTO results (residues, quantitative_readout) VALUES
  ('AALQIPFAMQMAYRENGIG [S:892-910]', 11),
  ('TGPEAGLPYGANKDG [N: 115-129]', 0),
  ('RIGMEVTPSGTWLTYTGAIKLDDKDPNEKDQVILLNKHIDAYKTEPP [N: 319-365]', 17),
  ('NVPLHGTILTRPLLESELVIGAVILRGHLRIAGHHLGRCDIKDLPKEITVA [M: 121-171]', 18),
  ('MDLFMRIFTIGTVTLKQGEIKDATPSDF [ORF3a: 1-28]', 4);

Would you be so kind as to report Unique HEK293T peptides in segment for each listed record?
1. TDHSSSSDNIALLVQ [M: 208-222]
2. CSNLLLQYGSFCTQLNRALTGIAVEQDKNTQE [S:749-780]
3. MDGSIIQFPNTYLEGSVR [nsp4: 194-211]
4. TQQLIRAAEIRASANLA [S:1009-1025]
5. INITRFQTLLALHRSYL [S: 233-249]
6. TPTWRVYSTGSNVFQTRAG [S:630-648]

[reply]
2
10
5
14
1
2

Short answer for TVEKGIYQTSNERVQPTES [S:307-325] : Unique HEK293T peptides in segment was 3
